molecular target: Protein-tyrosine kinase 2-beta (Homo sapiens); test: Inhibition of HA-epitope-tagged Pyk2 FERM domain expressed in HEK293 cells assessed as inhibition of binding to 12A10 antibody by ELISA; assay type: cell-based; parameters: concentration or dose not given beside the values; conditions: concentration not given here
# inhibition listing for each entry below
Number only, in %; omit the unit.

Example molecules with recorded inhibition:
C=CCOC(=O)NCCSc1nc2ccc(NC(=O)CSc3nc(C)cc(C)n3)cc2s1
19
CC(=O)Nc1ccc(S(=O)(=O)NNC(=O)Nc2ccccc2-c2ccccc2)cc1Cl
24
C=CCOC(=O)NCCSc1nc2ccc(NC(=O)c3csnn3)cc2s1
33
C=CCOC(=O)NCCSc1nc2ccc(NC(=O)[C@H]3CC(=O)c4ccccc43)cc2s1
11
C=CCOC(=O)NCCSc1nc2ccc(NC(=O)CSc3ccccn3)cc2s1
22
O=C(NCC(=O)N1CCC2(CC1)CCN(C(=O)Cc1n[nH]c(=O)c3ccccc13)C2)c1ccco1
18
Cc1ccc(C(=O)NCCc2cc3ccccc3[nH]2)c(C2CCN(C(=O)CNC(=O)Nc3ccccc3)CC2)n1
6

Now consider the entry below.
Test item COc1ccc(NC(C)=O)cc1NS(=O)(=O)c1ccc(NC(C)=O)cc1 ; Protein-tyrosine kinase 2-beta (Homo sapiens); reported inhibition was 18
